# MEASUREMENT NOTES: chemical genetic growth profiling, strain panel (AID 1159580);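 further: tested at 20 µM; growth read once vehicle control cultures reached saturation at 30 °C; 1 = growth at the plate median or of vehicle wells; lower values mean less growth of the strain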
# CONDITION INFO: S. cerevisiae deletion strains, growth OD, locus YDR195W, strain ref2
In all, about 5,500 compounds went through this assay and about 2,000 (36%) were called active. Inconclusive results (about 18%) are left out. Some of the results follow.
The following compounds are shown together with reported normalized growth values.

>  <COMPOUND>
O=c1oc2cc(O)ccc2s1

>  <normalized growth>
1.12 (inactive)

$$$$
>  <COMPOUND>
CC(C)(C#N)O[C@@H]1O[C@H](CO)[C@@H](O)[C@H](O)[C@H]1O

>  <normalized growth>
0.98 (inactive)

$$$$
>  <COMPOUND>
COC(=O)Nc1nc2ccc(C(=O)c3ccccc3)cc2[nH]1

>  <normalized growth>
0.979 (inactive)

$$$$
>  <COMPOUND>
O=C1C(O)=C(O)C(=O)C(O)=C1O

>  <normalized growth>
0.999 (inactive)

$$$$

Then this compound:
-- ask // query normalized growth value for entry `CCOP(=S)(OCC)Oc1nc(Cl)c(Cl)cc1Cl`
-- reply 1.03 (inactive)

---

The following compounds are shown together with reported normalized growth values.
# MEASUREMENT NOTES: chemical genetic growth profiling, strain panel (AID 1159580);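 further: tested at 20 µM; growth read once vehicle control cultures reached saturation at 30 °C; 1 = growth at the plate median or of vehicle wells; lower values mean less growth of the strain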
# CONDITION INFO: S. cerevisiae deletion strains, growth OD, locus YNL271C, strain bni1, stronger effect = lower value
Among all 5,500 compounds or so, about 2,000 (36%) were called active. About 18% were inconclusive and are not listed. This is one part of the list.
The response must contain the number and no unit.

As a guide, the following entries are already answered.
>  <COMPOUND>
C[C@H]1[C@H](C)CC[C@]2(CO)CC[C@]3(C)C(=CCC4[C@@]5(C)CC[C@H](O)C(C)(C)C5CC[C@]43C)[C@H]12 (some centres not stated)

>  <OBSERVED VALUE>
1.02

$$$$
>  <COMPOUND>
COC(=O)C[C@H]1C(C)(C)C(=O)[C@@H]2CC3C4=CC(=O)O[C@@H](c5ccoc5)[C@]4(C)CCC3[C@@]1(C)C2=O (some centres not stated)

>  <OBSERVED VALUE>
0.976

$$$$
>  <COMPOUND>
C/C=C1\[C@H]2C=C(C)C[C@]1(N)c1ccc(=O)[nH]c1C2

>  <OBSERVED VALUE>
1.02

$$$$
>  <COMPOUND>
CCC(C)C(NC)C(=O)O (configuration not stated)

>  <OBSERVED VALUE>
0.992

$$$$
>  <COMPOUND>
COc1ccc2c(c1)c(CC(=O)O)c(C)n2C(=O)c1ccc(Cl)cc1

>  <OBSERVED VALUE>
0.955

$$$$

-- ask // query normalized growth value for entry `CC(C)(Oc1ccc(CCNC(=O)c2ccc(Cl)cc2)cc1)C(=O)O`
-- reply 1.02

-- ask // query normalized growth value for entry C/C=C(/C)C(=O)O[C@@H]1[C@H](OC(C)=O)[C@@]2(CO)C(CC1(C)C)C1=CCC3[C@@]4(C)CC[C@H](O[C@@H]5O[C@H](C(=O)O)[C@@H](O[C@@H]6O[C@H](CO)[C@@H](O)[C@H](O)[C@H]6O)[C@H](O)[C@H]5O[C@@H]5O[C@H](CO)[C@@H](O)[C@H](O)[C@H]5O)[C@](C)(CO)C4CC[C@@]3(C)[C@]1(C)C[C@H]2O (some centres not stated)
-- reply 1.03
